- System: MDA-MB-435
MEASURED PARAMETER: GI50

Example entries and their recorded answers appear below.
Would you mind telling me what GI50 value was observed for CCOc1c(Br)cc(C2C(C(=O)OC)=CN(C)C=C2C(=O)OC)cc1OC ?
37300 nM

Would you mind telling me what GI50 value was observed for CN(C)c1ccc(N2Cc3ccccc3OC3=C2C(=O)c2c(O)ccc(O)c2C3=O)cn1 ?
237 nM

New cases:
Would you mind telling me what GI50 value was observed for CCN(CC)CCCC(C)Nc1cnc(C(=O)Nc2ccc(Cl)c3cccnc23)cn1 (stereo not drawn) ?
1810 nM

====

I'd appreciate it if you could supply TGI values for the items below.
- Test system: KM20L2 colon
- ASSAY TEXT: NCI tumour cell line growth inhibition, 48 h

Would you mind telling me what TGI value was observed for O=C(O)C(CP(=O)(O)O)=C(Cl)Cl ?
> 100 µM

Would you mind telling me what TGI value was observed for C=C(C)C1CC=C(C)[C@](O)(C2(O)C[C@H](C(=C)C)CC=C2C)C1 (some centres undefined) ?
> 100 µM

Would you mind telling me what TGI value was observed for CNC(=O)CN(CC(=O)NC)C(=O)NC ?
> 100 µM

Would you mind telling me what TGI value was observed for CN(C)CCNC(=O)c1cc2ccccc2c2nc3ccccc3nc12 ?
2.93 µM

Would you mind telling me what TGI value was observed for CCOC12OC3=C(CC1CC1=C(CCC1=O)O2)C(=O)CC3 (centres undefined) ?
> 100 µM

Would you mind telling me what TGI value was observed for CCCCCCC(=O)OC[n+]1ccc2c(C)c3[nH]c4ccccc4c3c(C)c2c1 ?
2.96 µM

Would you mind telling me what TGI value was observed for O=S1c2ccccc2N=C(c2ccc3ccccc3c2)CC1C1=CC=CCC1 (centres undefined) ?
37.2 µM

Would you mind telling me what TGI value was observed for COC(=O)/C=C1/CCC2[C@@H](C(=O)CC3[C@]2(C)CCC[C@@]3(C)C(=O)OC)C1C (some centres undefined) ?
29.5 µM

Please look at the items below and tell me TGI for each one, in order.
1. CS(=O)(=O)NNS(=O)(=O)c1cccc([N+](=O)[O-])c1
2. CCC[CH2][Sn]1([CH2]CCC)[O]C(=O)c2cc(I)cc(I)c2[O]1
3. CN1C(=O)c2ccccc2NC(=O)c2cnn(C)c21
4. O=C1CCCCC1CN1CCCC1 (centres undefined)
5. COc1cccc(-c2cc(=O)c3cc(OC)c(OC)cc3[nH]2)c1
6. C/C(=C\C(C)COCc1ccccc1)[C@H](COCc1ccccc1)OCc1ccccc1 (some centres undefined)

1. > 100 µM
2. 3.39 µM
3. > 100 µM
4. > 100 µM
5. > 100 µM
6. > 100 µM
